The entries below come with measured protein stability index values attached.
B1: RIPK4 (parent)
chain: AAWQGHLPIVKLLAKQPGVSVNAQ

Variants of: B1
TEST_DETAILS: protein stability index of a GFP-peptide fusion (GPS, HEK-293T) (PSI 1-6); higher = more stable;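 note: lentivirally expressed fusions sorted by FACS into six bins by GFP to DsRed ratio, PSI derived from sequencing read proportions per bin multiplied by bin number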
MEASUREMENT_CONDITIONS: c terminus: a fixed tail appended
Would you mind answering with just the numeric figure?

Consider the worked cases shown below.
>>> measured_number("AAWQGHLQIVKLLAKQPGVSVNAQ [P8Q]")
1.85
>>> measured_number("AAWQGHLPIVKLKAKQPGVSVNAQ [L13K]")
2.86
>>> measured_number("AAWQGHLPIVKMLAKQPGVSVNAQ [L12M]")
1.88

Data request: Find the measured protein stability index of AAWQGHLPIVKLLAKQFGVSVNAQ [P17F] and report it.
Data returned: 1.53

Data request: Find the measured protein stability index of AAWQGHLPIVKLLAKQPGVSVNAK [Q24K] and report it.
Data returned: 2.78
